Kp: recorded values
- Protocol Details: in vivo
- Parameters: species or system Sprague Dawley rats
- Test Conditions: Sprague Dawley, rat, po, 5 mg/kg
Attribute Measured: Kp

1. Cc1cc(Nc2cc3ncccc3c(N[C@@H]3C[C@H]4CC[C@@H](C3)N4C(=O)C(F)F)n2)n[nH]1
> 450
2. Cc1cc(Nc2cc3ncccc3c(N[C@@H]3C[C@H]4CC[C@@H](C3)N4CCF)n2)n[nH]1
> 450
3. Cc1cc(Nc2cc3ncccc3c(N[C@@H]3C[C@H]4CC[C@@H](C3)N4CCC#N)n2)n[nH]1
> 450

###

IC50: recorded values
- System: IL-4 induced STAT6 phosphorylation in THP-1 human monocytic cells
- Protocol Details: Cellular JAK potency assay, THP-1
- Test Conditions: Homo sapiens, THP-1, read-out: THP-1 IL4 pIC50 (converted)
Attribute Measured: IC50

1. Cc1cc(Nc2cc3nc(CN4CCOCC4)ccc3c(N[C@@H]3C[C@H]4CC[C@@H](C3)N4S(=O)(=O)c3cncc(F)c3)n2)n[nH]1
< 31.6 nM
2. Cc1cc(Nc2cc3ncccc3c(N[C@@H]3C[C@H]4CCC[C@@H](C3)N4S(=O)(=O)c3ccccc3)n2)n[nH]1
< 31.6 nM
3. CCC1(S(=O)(=O)N2[C@@H]3CC[C@H]2C[C@H](Nc2nc(Nc4cc(C)[nH]n4)cc4nc(CN5CCC(F)(F)CC5)ccc24)C3)CC1
31.6 to 200 nM
